B1: KLHL13 (parent)
chain: TGEFLKLPFERLAFVLSSNSLKHC

# Variants of: B1
# method-notes: protein stability index of a GFP-peptide fusion (GPS, HEK-293T) (PSI 1-6); higher = more stable;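 further: lentivirally expressed fusions sorted by FACS into six bins by GFP to DsRed ratio, PSI derived from sequencing read proportions per bin multiplied by bin number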
# test-context: c terminus: a fixed tail appended
measured-metric: protein stability index
Returns: the value as a bare number; no unit string appended.

# annotated cases, reported protein stability index shown
variant-id	protein stability index
S18L	3.02
N19Y	3.05
L16R	2.21
K22L	3.44

// query Name the recorded protein stability index of the item "R11Y" in your answer.
// result 4.43

// query Indicate its recorded protein stability index; the variant in question is "H23P"
// result 1.85

// query Return reported protein stability index. Input variant: "K6T"
// result 2.73

// query Name the recorded protein stability index of the variant listed here: "L5Q"
// result 2.06
